- System: HeLa
- ASSAY PROTOCOL: percent cells in G1 phase; higher = more G1 arrest
- CONDITION SET: 10 µM; 20 h
Hi there, I'd appreciate the recorded percent cells in G1 phase for every entry that follows.
Quick reminder: number only, in %, skip the unit.

INPUT: So what does the record say about percent cells in G1 phase for CCN(CC)Cc1c(O)ccc2c(=O)c(-c3ccccc3)coc12 (hit class: S-phase inhibitor) ?
OUTPUT: 55.9

INPUT: What does the data say about its percent cells in G1 phase? Entry: Nc1ccn([C@H]2CC[C@@H](CO)O2)c(=O)n1 [Zalcitabine] (hit class: S-phase inhibitor)
OUTPUT: 45.1

INPUT: I have this molecule here, Cc1cc(N2CCCCC2)c(F)cc1[N+](=O)[O-] (hit class: S-phase inhibitor) , and I need its recorded percent cells in G1 phase.
OUTPUT: 44.7

INPUT: Fill blank: measured percent cells in G1 phase of the molecule COc1ccc(C(=O)c2coc3ccc(OC)cc3c2=O)cc1 (hit class: G1-phase inhibitor) is ____.
OUTPUT: 70.5

INPUT: Any idea what percent cells in G1 phase was measured for COc1[nH]c2ccccc2c1C=NO (hit class: S-phase inhibitor) ?
OUTPUT: 59.4

INPUT: Any idea what percent cells in G1 phase was measured for Cn1c(SCc2ccccc2)nc2ccccc2c1=O (hit class: S-phase inhibitor) ?
OUTPUT: 60

INPUT: I am curious: what percent cells in G1 phase value has been reported for O=C(COc1ccc(Cl)cc1)NC(Cc1c[nH]c2ccccc12)C(=O)O (configuration not stated) (hit class: G1-phase inhibitor) ?
OUTPUT: 69
